assay-metric: melting point

Query Cc1nc2c(N)nc3ccccc3c2o1 yields melting point of 195 to 197 °C

---
Query CCCCC(O)c1cn(C(c2ccccc2)(c2ccccc2)c2ccccc2)cn1 (stereo not given) yields melting point of 119 to 120 °C

Query O=C1c2cccc3c2N(CC3)c2ccccc2N1CC#CCN1CCCC1 yields melting point of 80 to 81 °C

Query COC(=O)c1ccc(OCCNC(=O)c2ccc(Br)cc2)cc1 yields melting point of 134 to 136 °C

Query COc1ccc(/C=C/C(=O)Nc2ccccc2C(=O)O)cc1OC1CCCC1 yields melting point of 211 to 217 °C

----------
assay-metric: melting point

Use these answered entries as a reference point.
Query N#Cc1cc(-c2ccoc2)c2ccc(COc3cc(F)cc(-c4ccccc4)c3)cc2n1 yields melting point of 150 to 152 °C

Query CC(=O)NC[C@H]1CN(c2ccc(N3CCC4(CC3)OCCO4)cc2)C(=O)O1 yields melting point of 140 to 142 °C

Query ClC(Cl)(Cl)c1nc(NCc2ccccc2)nc(C(Cl)(Cl)Cl)n1 yields melting point of 96.5 to 97 °C

Query CCCCC1COC(c2ccc(OC(F)(F)F)cc2)OC1 (stereo not given) yields melting point of 23 °C

---
Query COc1cc2c(cc1OC)-c1cc3ccccc3nc1CC2 yields melting point of 55 to 56 °C

----------
assay-metric: melting point

Query CC(C)(C)c1ccc(/C=N/OCCCOc2ccc(C(=O)O)c(NC(=O)c3ccc(C(C)(C)C)cc3)c2)cc1 yields melting point of 192 to 194 °C

Query CCOCc1nc2c(N)nc3cc(OCCCc4cccs4)ccc3c2n1CC(C)(C)NS(C)(=O)=O yields melting point of 202 to 203 °C

Query CCCc1nn(CC)c(C(=O)O)c1Cc1ccc(-c2ccccc2NS(=O)(=O)C(F)(F)F)cc1 yields melting point of 68 to 72 °C

Query C[Si](C)(C)OCCCc1c[nH]c2ccccc12 yields melting point of 34 to 38 °C

Query COC(=O)c1c(Cc2ccc(S(=O)(=O)N3CCN(C)CC3)cc2)c(=O)c2ccc(Cl)cc2n1-c1ccccc1 yields melting point of 223 to 227 °C

---
Query CCCC[C@H](NC(=O)[C@H](CCCC)NC(=O)OCc1ccccc1)C(=O)CSCc1ccco1 yields melting point of 95 to 97 °C

----------
assay-metric: melting point (°C)

Query COc1cc(C)nc(N(C)C#N)n1 yields melting point of 123

[I] NC(=O)CON=c1c2nccc3cccc(c32)n2cccc12
[II] N#CC(C#N)(CC=C(Br)Br)Cc1ccc(OC(F)(F)F)cc1
*Q* Determine, for I and II , which has the greater value of melting point. Your answer should be the label attached to the chosen record.
*A* I

----------
Residues, ends and D or L forms follow the SMILES beside them. *: point of attachment. ONp = O=[N+]([O-])c1ccc(O*)cc1
assay-metric: melting point

Query Cc1ccc(-c2[nH]c(-c3ccc(C(F)(F)F)cc3)nc2C(=O)Nc2nccs2)s1 yields melting point of 235 to 237 °C

---
Query CN1CCC23c4c5ccc(O[Si](C)(C)C(C)(C)C)c4OC2C(O[Si](C)(C)C(C)(C)C)C=CC3C1C5 (stereo not drawn) yields melting point of 118 to 119 °C

Query CC(C)CC(NC(=O)C1CCCN1)C(=O)NCC(=O)Oc1ccc([N+](=O)[O-])cc1 (stereo not drawn) (H-Pro-Leu-Gly-ONp; configuration not given here) yields melting point of 173 °C

Query CCOC(=O)C1=Cc2cc(Cl)cnc2NC1C(F)(F)F (stereo not drawn) yields melting point of 180 to 182 °C

Query CCOC(=O)c1cc2cccc(NC(=O)c3cc(OCc4ccccc4F)cc(OCc4ccccc4F)c3)c2[nH]1 yields melting point of 157 to 158 °C

Query NC(=O)CNC(=O)c1cccc(-c2cccc3oc(Cc4ccc(F)c(Cl)c4)cc23)c1 yields melting point of 155 to 156 °C

Query CC(C(=O)O)c1ccc(CCNC(=O)c2cccc3cccnc23)cc1 (stereo not drawn) yields melting point of 143 to 144 °C

Query Cn1nc(N)c2sc3ccccc3c21 yields melting point of 177 to 178 °C
